Test system: UACC-62 melanoma
Assay: NCI-60 one-dose screen, 48 h (100 = growth as untreated, 0 = no growth, -100 = all killed)
Conditions: 10 µM unless noted
About 83,000 compounds went through this panel and 20% of them were active in at least one assay; those are over-represented in the sample as a whole. The source made the active and inactive calls. Rule for the calls: active = growth percent below 10; inactive = the rest.
Reported growth by item:

Example entries begin here.
[
  {
    "compound": "O=C(CCN1CCCC1)Nc1ccc2c(Nc3ccc(Br)cc3)c3ccccc3nc2c1",
    "endpoint": "growth",
    "test result": "77.8% (inactive)"
  },
  {
    "compound": "Cc1cc2cc3ccc(N(C)C)cc3nc2cc1N",
    "endpoint": "growth",
    "test result": "-27.5% (active)"
  },
  {
    "compound": "CCOC(=O)c1cc(C(=O)c2ccc(OC)c(OC)c2)n2ccc(/C=C/c3cc[n+](CC(=O)c4ccc(OC)c(OC)c4)cc3)cc12",
    "endpoint": "growth",
    "test result": "96.6% (inactive)"
  },
  {
    "compound": "O=C(Nc1cccc(C(=O)N2CCc3ccc(Cl)cc32)c1)c1ccco1",
    "endpoint": "growth",
    "test result": "36.3% (inactive)"
  },
  {
    "compound": "NC1=NN=C(N)C1=Cc1cc2ccccc2n2nnnc12",
    "endpoint": "growth",
    "test result": "93.2% (inactive)"
  },
  {
    "compound": "C=CCN1C(=O)/C(=C/C(=O)OC)S/C1=N\\NC(=O)c1cc2ccc1/C=C\\c1ccc(cc1)/C=C\\2",
    "endpoint": "growth",
    "test result": "77.2% (inactive)"
  }
]

Exercise: Read off the recorded growth for N#CC1=C(N)Oc2c(cnn2-c2ccc([N+](=O)[O-])cc2[N+](=O)[O-])C1c1ccccc1 (stereo not given)
Key: 93% (inactive)

Exercise: Read off the recorded growth for CCN(CC)CCn1c(=O)c2cc(OC)c(OC)cc2c2ccc3cc4c(cc3c21)OCO4
Key: 16.8% (inactive)

Exercise: Read off the recorded growth for O=C(Cn1c(C(=O)c2ccccc2)nc2ccccc21)c1ccc(F)cc1
Key: 37.1% (inactive)

Exercise: Read off the recorded growth for CCOC(=O)Nc1ccc(-c2ccc3c(c2)NC(=O)/C3=C\c2ccc[nH]2)cc1
Key: 101% (inactive)

* * *

System: NCI-H226 lung
Assay: NCI-60 one-dose screen, 48 h
Settings: 10 µM unless noted
This is part of a sample that, as a whole, favours compounds with a hit. Of some 83,000 tested, about 20% had one in any assay. Calls of active or inactive are those of the source. How the source made its calls: active means growth percent below 10; inactive means the rest.
Write down the outcome that applies. Available outcomes: active, inactive

[
  {
    "compound": "Cc1ccc(C(=O)/C(=C\\c2ccc([N+](=O)[O-])cc2)S(=O)Cc2ccc(F)cc2)cc1 (centres undefined)",
    "group label": "inactive"
  },
  {
    "compound": "N/C(=N\\C(N)=N\\c1nc2ccccc2s1)c1cccc(Cl)c1",
    "group label": "inactive"
  },
  {
    "compound": "O=[N+]([O-])c1cc(Br)c2cccc3c2c1CC3",
    "group label": "inactive"
  }
]

Exercise: What was the test verdict on C=C1C(=O)O[C@H]2[C@H]1CC/C(C(=O)NCCCCCNC(=O)/C1=C/CC[C@@]3(C)O[C@H]3[C@H]3OC(=O)C(=C)[C@@H]3CC1)=C\CC[C@@]1(C)O[C@@H]21 ?
Key: inactive

Exercise: What was the test verdict on Cc1cc(C)c(S(=O)(=O)Oc2ccccc2[N+](=O)[O-])c(C)c1 ?
Key: inactive

Exercise: What was the test verdict on C[C@@H](Nc1ncnc2ccc(-c3cnc(N)nc3)cc12)c1ccc(F)cc1 ?
Key: inactive

Exercise: What was the test verdict on NS(=O)(=O)c1ccc(CCn2c(SCC(=O)c3ccc(Cl)cc3)nc3ccccc3c2=O)cc1 ?
Key: inactive

Exercise: What was the test verdict on COc1ccc2c(c1)C(=O)CC(c1ccccc1OC)O2 (centres undefined) ?
Key: inactive

Exercise: What was the test verdict on Clc1ccc(-c2ccc(CNCC3CCNCC3)o2)c(-c2ccccc2)c1 ?
Key: active

* * *

Reported growth by item:
Tested on: A549/ATCC NSCLC
Assay: NCI-60 one-dose screen, 48 h (100 = growth as untreated, 0 = no growth, -100 = all killed)
Conditions: 10 µM unless noted
This is part of a sample that, as a whole, favours compounds with a hit. Of some 83,000 tested, about 20% had one in any assay.
Quick reminder: number only, in %, skip the unit.

[
  {
    "compound": "O=S(=O)(NCCCNc1nccc(-c2c(-c3cccc(F)c3)nc3sccn23)n1)c1cccc(F)c1",
    "assay system": "A549/ATCC NSCLC",
    "test result": 49.3
  },
  {
    "compound": "C[C@H](c1nc2ccc(N)cc2[nH]1)[C@H]1CC[C@H]2[C@@H]3CCC4=CC(=O)CC[C@]4(C)[C@H]3CC[C@]12C",
    "assay system": "A549/ATCC NSCLC",
    "test result": 96.7
  },
  {
    "compound": "COC1=CC(=O)c2ccccc2C1=O",
    "assay system": "A549/ATCC NSCLC",
    "test result": 97.4
  }
]

Exercise: Read off the recorded growth for O=C1Nc2cc(-c3ccc(NS(=O)(=O)c4ccccc4)cc3)ccc2/C1=C/c1ccc[nH]1
Key: 86.6

Exercise: Read off the recorded growth for O=S(=O)(NCCNc1nccc(-c2c(-c3cccc(O)c3)nc3occn23)n1)c1ccc(C(F)(F)F)cc1
Key: 94.8

Exercise: Read off the recorded growth for Nc1c(C(=O)Nc2ccnc3ccccc23)sc2nc3c(cc12)CN(Cc1ccccc1)CC3
Key: 85.1

Exercise: Read off the recorded growth for COc1ccc2c(c1)oc1c(C)c3c(c(C)c12)C(=O)N(N)C3=O
Key: 24.1

Exercise: Read off the recorded growth for COc1cc2nc(-c3ccc(Cl)cc3)cc(OCCCN3CCCC3)c2cc1OC
Key: 41.5

* * *

Tested on: HCT-15 colon
Experiment: NCI-60 one-dose screen, 48 h (100 = growth as untreated, 0 = no growth, -100 = all killed)
Details: 10 µM unless noted
The panel holds about 83,000 compounds, 20% with a hit somewhere; the sample as a whole holds those more often.
endpoint: growth (%)
Quick reminder: number only, in %, skip the unit.

Example entries begin here.
[
  {
    "compound": "COCc1cnccc1NC1CCCCCC1",
    "assay system": "HCT-15 colon",
    "endpoint": "growth",
    "readout unit": "%",
    "test result": 107
  },
  {
    "compound": "O=C(Cc1ccc(/C=C/C(=O)c2ncc[nH]2)cc1)Nc1ccc(Cl)cc1",
    "assay system": "HCT-15 colon",
    "endpoint": "growth",
    "readout unit": "%",
    "test result": -25
  },
  {
    "compound": "CC(C)(C)c1cc(/C=N/NC(=O)c2ccccc2NC(=O)c2cccs2)c(O)c(C(C)(C)C)c1",
    "assay system": "HCT-15 colon",
    "endpoint": "growth",
    "readout unit": "%",
    "test result": 17.1
  },
  {
    "compound": "COc1cc(C=O)ccc1OC1OC(COC(C)=O)C(OC(C)=O)C(OC(C)=O)C1OC(C)=O (stereo not given)",
    "assay system": "HCT-15 colon",
    "endpoint": "growth",
    "readout unit": "%",
    "test result": 99.3
  }
]

Exercise: Read off the recorded growth for COc1cc(CC(=O)c2ccc(O)c(OC)c2)ccc1O
Key: 110

Exercise: Read off the recorded growth for COc1cccc2c1c1nc3cc(C)c(C)cc3nc1n2CCN(C)C
Key: 13.1

Exercise: Read off the recorded growth for COc1cc2nc(-c3ccc(C(F)(F)F)cc3)cc(OCCN3CCCCC3)c2cc1OC
Key: 43.7

Exercise: Read off the recorded growth for COC(=O)c1ccc2c(c1)[n+](=O)c(C(C)=O)c(C(F)(F)F)n2[O-]
Key: -77.5

Exercise: Read off the recorded growth for CC1(C)NCCC[C@]2(C)[C@H]3CC(=O)[C@H]4[C@@H]5C[C@](C)(CO)CC[C@]5(C)CC[C@@]4(C)[C@]3(C)CC[C@@H]12
Key: 98.9

Exercise: Read off the recorded growth for CCCC/C=N/NC(=S)NCc1ccccc1
Key: 95.8

* * *

Test system: OVCAR-3 ovarian
Experiment: NCI-60 one-dose screen, 48 h (100 = growth as untreated, 0 = no growth, -100 = all killed)
Details: 10 µM unless noted
The panel holds about 83,000 compounds, 20% with a hit somewhere; the sample as a whole holds those more often. Activity calls are given as the source filed them. How the source made its calls: active means growth percent below 10; inactive means the rest.
Reported growth by item:

[
  {
    "compound": "CN(C)c1ccc(C2C(C#N)=C(/N=C/c3ccccc3)Oc3c2ccc2ccccc32)cc1 (stereo not given)",
    "growth": "43.7% (inactive)"
  },
  {
    "compound": "CCSCC1CC(O)(c2ccccc2)CC(c2ccc(F)cc2)O1 (stereo not given)",
    "growth": "-13% (active)"
  },
  {
    "compound": "CCOC(=O)c1nc2c3ccccc3ccn2c1C(=O)OCC",
    "growth": "106% (inactive)"
  },
  {
    "compound": "CCOC(=O)c1cc(C(=O)c2ccc(Br)cc2)n2ccc(/C=C/c3cc[n+](CC(=O)c4ccc(OC)cc4)cc3)cc12",
    "growth": "102% (inactive)"
  },
  {
    "compound": "O=C(/C(=C\\c1ccc([N+](=O)[O-])cc1)S(=O)Cc1ccc(Cl)cc1)c1ccc(Cl)cc1 (stereo not given)",
    "growth": "73.7% (inactive)"
  }
]

Now for the compound whose growth we want.
Exercise: Read off the recorded growth for CCOC(=O)CC1CSC(N/N=C/c2ccc(-n3cccn3)cc2)=N1 (stereo not given)
Key: 110% (inactive)
